Measured inhibition by item
# ASSAYED TARGET: G-protein coupled receptor 183 (Homo sapiens) (UniProt P32249)
# Sequence (P32249 whole entry, looked up, the tested form may be a part): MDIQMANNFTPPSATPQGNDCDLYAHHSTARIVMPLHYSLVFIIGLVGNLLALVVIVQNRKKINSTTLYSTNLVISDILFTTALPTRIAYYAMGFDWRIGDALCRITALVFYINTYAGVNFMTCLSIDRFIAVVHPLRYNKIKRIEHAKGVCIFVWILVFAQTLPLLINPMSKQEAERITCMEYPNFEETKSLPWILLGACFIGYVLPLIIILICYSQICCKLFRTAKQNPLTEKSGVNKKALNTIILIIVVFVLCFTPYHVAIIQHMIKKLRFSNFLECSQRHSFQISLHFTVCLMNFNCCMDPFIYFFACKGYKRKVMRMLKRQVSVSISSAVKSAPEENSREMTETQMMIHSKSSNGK
# METHOD NOTES: EBI2 receptor antagonists, beta-arrestin recruitment, primary screen, cell-based, luminescence, 7a,25-OHC stimulation, uHTS (AID 651636);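 further: enzyme fragment complementation signal reports receptor beta-arrestin coupling in cells; 0% = agonist plus DMSO wells and 100% = wells without agonist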
# TEST CONDITIONS: 7a,25-OHC stimulated, at 5 µM, stronger effect = higher value
Out of some 360,000 compounds screened, about 3,000 (0.83%) were called active. The entries come from a sample that favours actives as a whole.

- INPUT SMILES: "CN1CCN(C(=O)c2ccc(-c3cc4nc(NCc5cccnc5)n(C)c(=O)c4s3)cc2)CC1"
  UOM: "%"
  inhibition: -2.23
- INPUT SMILES: "Cc1ccc(C(=O)c2coc3ccc(O)c(CN(C)C)c23)cc1"
  UOM: "%"
  inhibition: -7.39
- INPUT SMILES: "CN(C)c1nc(=Nc2cccc(Cl)c2)ss1"
  UOM: "%"
  inhibition: 1.94

----------
# ASSAYED TARGET: G-protein coupled receptor 183 (Homo sapiens) (UniProt P32249)
# METHOD NOTES: EBI2 receptor antagonists, beta-arrestin recruitment, primary screen, cell-based, luminescence, 7a,25-OHC stimulation, uHTS (AID 651636);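 further: enzyme fragment complementation signal reports receptor beta-arrestin coupling in cells; 0% = agonist plus DMSO wells and 100% = wells without agonist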
# TEST CONDITIONS: 7a,25-OHC stimulated, at 5 µM
Among all 360,000 compounds or so, about 3,000 (0.83%) were called active. No stated cut-off is given here; in the data, active means inhibition above about 38%; inactive means the rest. The list comes from a sample in which actives are over-represented; it also holds close analogues and randomly drawn compounds.
Outcome codes: active, inactive

- MOLECULE: "CCC(C(=O)OC)n1cnc2c(oc3ccccc32)c1=O (stereo not given)"
  ASSIGNED LABEL: "inactive"
- MOLECULE: "O=C(NCCc1ccccc1)Oc1ccc(Cl)cc1"
  ASSIGNED LABEL: "inactive"
- MOLECULE: "O=C1/C(=C\\c2ccc(O)cc2)CCC1CNc1ccc(Cl)cc1 (stereo not given)"
  ASSIGNED LABEL: "inactive"
- MOLECULE: "CC(C)Cc1ccc(-c2cc3nc(NCc4cccc(Cl)c4)ccn3n2)cc1"
  ASSIGNED LABEL: "active"
- MOLECULE: "COCCCNc1ccn2nc(-c3ccc(CC(C)C)cc3)cc2n1"
  ASSIGNED LABEL: "inactive"
- MOLECULE: "CC(C)CC1(C)NC(=O)N(CC(=O)Nc2ccc3c(c2)OCCO3)C1=O (stereo not given)"
  ASSIGNED LABEL: "inactive"
- MOLECULE: "COC(=O)C[C@@H]1C=C[C@@H](NC(=O)c2ccc3c(c2)OCO3)[C@@H](CO)O1"
  ASSIGNED LABEL: "inactive"
- MOLECULE: "CN(C)C(=O)c1cccc(-c2cnc3sc(NCc4ccc5c(c4)OCO5)nn23)c1"
  ASSIGNED LABEL: "inactive"
- MOLECULE: "COc1ccc(-c2nnn(Cc3nc(N)nc(N4CCCCC4)n3)n2)cc1"
  ASSIGNED LABEL: "inactive"
- MOLECULE: "Cn1c(CC2Sc3ccccc3NC2=O)nnc1SCC(=O)c1ccc(Cl)cc1 (stereo not given)"
  ASSIGNED LABEL: "inactive"
- MOLECULE: "COc1ccc(N2C(=O)C(O)C2c2ccc(C)cc2)cc1 (stereo not given)"
  ASSIGNED LABEL: "inactive"
- MOLECULE: "C=CCOC(=O)C1=C[C@@H](c2ccccc2)C[C@@H](OCc2ccc(CO)cc2)O1"
  ASSIGNED LABEL: "inactive"
- MOLECULE: "CC(NC(=S)NC1CCCCC1)C(c1ccccc1)N1CCOCC1 (stereo not given)"
  ASSIGNED LABEL: "inactive"
- MOLECULE: "CSc1ncnc2c1ncn2CCCNCc1cccs1"
  ASSIGNED LABEL: "inactive"
- MOLECULE: "[O-][n+]1onc2c1CCc1[nH]c(-c3ccccc3)nc1-2"
  ASSIGNED LABEL: "inactive"
- MOLECULE: "COC(=O)c1ccc(NC(=O)c2cc3c(CO)cnc(C)c3oc2=Nc2cccc(C(N)=O)c2)cc1"
  ASSIGNED LABEL: "inactive"
- MOLECULE: "COc1ccc(N(CC(=O)Nc2cc(OC)ccc2OC)S(=O)(=O)c2c(C)noc2C)cc1"
  ASSIGNED LABEL: "active"
- MOLECULE: "CC(Oc1ccc(F)cc1)C(=O)N1CCN(c2ncccn2)CC1 (stereo not given)"
  ASSIGNED LABEL: "inactive"
- MOLECULE: "CCc1ccccc1NC(=S)Nc1cc(OC)c(NC(=O)C(C)C)cc1OC"
  ASSIGNED LABEL: "inactive"
- MOLECULE: "CCOC(=O)c1cccc(NC(=O)CN(c2ccc(C)cc2)S(=O)(=O)c2c(C)noc2C)c1"
  ASSIGNED LABEL: "inactive"
